Biological target: GST-Syk Full Protein (human) (Homo sapiens, UniProt P43405)
Assay: Syk kinase inhibition test (HTRF method)
Assay type: biochemical
Details: Tables 2-x, thiophene compounds B; read-out: sykHTRK ave IC50
Parameter: IC50

| Smiles representation | IC50 |
| --- | --- |
| CO/N=C(\N)c1ccc(-c2cccc(Nc3cc(C)ccn3)n2)s1 | 100 to 1000 nM |
| Cc1ccnc(Nc2cccc(-c3ccc(COc4ccc(C(=O)O)cc4)s3)n2)c1 | 100 to 1000 nM |

Ask | Give recorded IC50. Cc1ccnc(Nc2cccc(-c3ccc(Cl)s3)n2)c1
Reply | 100 to 1000 nM

Ask | Give recorded IC50. CCc1ccc(-c2cccc(Nc3cc(C)ccn3)n2)s1
Reply | 100 to 1000 nM

Ask | Give recorded IC50. CC(=O)c1ccc(-c2cccc(Nc3cc(OC(C)C)ncn3)n2)s1
Reply | < 100 nM

Ask | Give recorded IC50. Cc1ccnc(Nc2cccc(-c3ccc(C(N)=O)s3)n2)c1
Reply | < 100 nM

Ask | Give recorded IC50. Cc1ccnc(Nc2cccc(-c3ccc(C#N)s3)n2)c1
Reply | 100 to 1000 nM

Ask | Give recorded IC50. Cc1ccnc(Nc2cccc(-c3ccc(C(=O)NCCC(=O)O)s3)n2)c1
Reply | 100 to 1000 nM

Ask | Give recorded IC50. Cc1ccnc(Nc2cccc(-c3cc(C)c(C(=O)O)s3)n2)c1
Reply | 100 to 1000 nM

====

Molecular target: UniProt P43405
Assay: Syk kinase inhibition test (HTRF method)
Type: biochemical
Settings: HTRF, 100 μM ATP, 30 min room temperature, average; read-out: sykHTRF ave IC50
Some molecules, each annotated with its measured IC50.

# count of solved cases: 5
| Molecule | Endpoint value |
| --- | --- |
| Cc1ccnc(Nc2cccc(-c3cnc([C@H](Cc4ccc(OCc5ccccc5)cc4)NC(=O)OC(C)(C)C)s3)n2)c1 | > 1000 nM |
| Cc1ccnc(Nc2cccc(-c3cnc(CC4CCC(C(=O)N5CCC(O)CC5)CC4)s3)n2)c1 (centres unmarked) | 100 to 1000 nM |
| CNC(=O)Cc1ccnc(Nc2cccc(-c3cnc([C@@H]4CCC(=O)N4)s3)n2)c1 | > 1000 nM |
| Cc1ccnc(Nc2cccc(-c3cnc(CN4CCN(CCO)CC4)s3)n2)c1 | 100 to 1000 nM |
| CNC(=O)c1ncc(-c2cccc(Nc3cc(C)ccn3)n2)s1 | < 100 nM |

Ask | Give recorded IC50. COC(=O)N(C)Cc1ncc(-c2cccc(Nc3cc(C)ccn3)n2)s1
Reply | 100 to 1000 nM

Ask | Give recorded IC50. COC(=O)c1ccc(CCc2ncc(-c3cccc(Nc4cc(C)ccn4)n3)s2)cc1
Reply | > 1000 nM

Ask | Give recorded IC50. Cc1ccnc(Nc2cccc(-c3cnc([C@H](C)NS(C)(=O)=O)s3)n2)c1
Reply | 100 to 1000 nM

====

Some compounds, each annotated with its measured IC50.
Tested on: cultured human mast cells
Assay: Degranulation inhibition test using cultured human mast cells (IgE cross-linking, β-Hexosaminidase release)
Format: cell-based
Conditions: Mast cell; cultured human mast cells, anti-hIgE stimulation, β-Hexosaminidase index, average; read-out: human degranulation ave. IC50

| Compound | Tested system | IC50 |
| --- | --- | --- |
| Cc1ccnc(Nc2cccc(-c3cnc(C4CCCC(C(=O)O)C4)s3)n2)c1 (centres unmarked) | cultured human mast cells | > 1 µM |

Ask | Give recorded IC50. C[C@H](O)c1ncc(-c2cccc(Nc3cc(CCO)ccn3)n2)s1
Reply | < 0.1 µM

Ask | Give recorded IC50. Cc1ccnc(Nc2cccc(-c3cnc(C4CCN(C(N)=O)CC4)s3)n2)c1
Reply | 0.1 to 1 µM

Ask | Give recorded IC50. COC(=O)CCNCc1ncc(-c2cccc(Nc3cc(C)ccn3)n2)s1
Reply | > 1 µM

Ask | Give recorded IC50. Cc1ccnc(Nc2cccc(-c3cnc(C4CCC(=NO)CC4)s3)n2)c1 (centres unmarked)
Reply | > 1 µM

Ask | Give recorded IC50. Cc1ccnc(Nc2cccc(-c3cnc(CNc4ccc(CC(=O)N5CCC(O)CC5)cc4)s3)n2)c1
Reply | > 1 µM

Ask | Give recorded IC50. Cc1ccnc(Nc2cccc(-c3cnc(Cc4cccs4)s3)n2)c1
Reply | > 1 µM

Ask | Give recorded IC50. Cc1ccnc(Nc2cccc(-c3cnc([C@H](C)NC(C)C)s3)n2)c1
Reply | 0.1 to 1 µM
